- System: Plasmodium falciparum
- assayProcedure: Antimalarial activity against chloroquine-resistant Plasmodium falciparum K1 assessed as inhibition of parasite growth
- Type: functional, organism-based
Lab note: anything with IC50 below 20 nM is marked Y; values at 20 nM or higher are marked N.

C[C@@H]1CC[C@H]2[C@@H](C)C(=O)O[C@@H]3O[C@@]4(C)CC[C@@H]1[C@]32OO4
N
CCN(CC)Cc1cc(C2CCC3(CC2)OOC2(OO3)C3CC4CC(C3)CC2C4)ccc1O (stereo not given)
Y
C[C@@H]1C(=O)C[C@H]2C[C@@H]1OO[C@@]2(C)/C=C\c1ccc(C(F)(F)F)cc1C(F)(F)F
Y
CC(=O)O[C@@]1(C)CC[C@@H]2C[C@@H]1OO[C@]2(/C=C\c1ccc(Cl)cc1)c1ccccc1
N

Q) Find out if reported IC50 for C[C@@H]1CC[C@H]2C(CN3CCCCC3[C@H](O)c3cc(C(F)(F)F)nc4c(C(F)(F)F)cccc34)=C(C(F)(F)F)O[C@@H]3O[C@@]4(C)CC[C@@H]1[C@]32OO4 (stereo not given in full) is less than 20 nM
A) Y

Taken from ChEMBL document CHEMBL3600290.
